Items are presented alongside their recorded Emax.
System: saphenous vein in rabbits
Assay: Contractile effect on the rabbit saphenous vein precontracted by a depolarizing physiological solution (K+ 40 mM)
Format: cell-based
Conditions: Oryctolagus cuniculus, precontracted with 40 mM potassium, % of maximum contraction induced by hyperpotassic solutions
Description: The contractile effects are measured in vitro under static conditions on vascular capacitance or resistance rings of saphenous, femoral, jugular, mesenteric, and caval veins . . . and on femoral, carotid, basilar, or mesenteric arteries, as well as the thoracic or abdominal aorta . . . in rats (Wistar, 200-250 g), rabbits (New Zealand, 2-2.5 kg), guinea pigs (Dunkin Hartley 250-300 g). […]
recorded metric: Emax (%)

INSERT INTO measurements (compound, unit, observed_measurement) VALUES
  ('O=C1c2ccccc2C(=O)c2sc(-c3ccc(Cl)o3)nc21 [Example 19]', '%', 20),
  ('O=C1c2ccccc2C(=O)c2oc(-c3ccccc3)nc21 [Example f]', '%', 15),
  ('Cc1cccc(-c2nc3c(o2)C(=O)c2ccccc2C3=O)c1 [Example 7]', '%', 17),
  ('Nc1nc2c(s1)C(=O)c1ccccc1C2=O [Example i]', '%', 18),
  ('Cc1ccc(-c2nc3c(s2)C(=O)c2ccccc2C3=O)o1 [Example 38]', '%', 12),
  ('O=C1c2ccccc2C(=O)c2sc(-c3ccccn3)nc21 [Example k]', '%', 26),
  ('O=C1c2ccccc2C(=O)c2sc(-c3cccs3)nc21 [Example 20]', '%', 24),
  ('O=C1c2ccccc2C(=O)c2sc(-c3ccccc3)nc21 [Example j]', '%', 16),
  ('O=C1c2ccccc2C(=O)c2sc(-c3ccco3)nc21 [Example n]', '%', 24),
  ('O=C1c2ccccc2C(=O)c2sc(-n3cccc3)nc21 [Example 28]', '%', 29),
  ('O=C1c2ccccc2C(=O)c2oc(-c3cccc(F)c3)nc21 [Example 4]', '%', 29);

====

system: saphenous vein in rabbits; test: Contractile effect on the rabbit saphenous vein precontracted by a depolarizing physiological solution (K+ 40 mM); format: cell-based; conditions: Oryctolagus cuniculus, precontracted with 40 mM potassium, % of maximum contraction induced by hyperpotassic solutions
Listed below: Emax values for each entry.
recorded metric: Emax

INSERT INTO results (molecule, recorded_metric, observed_measurement) VALUES
  ('COc1ccc2c(c1)C(=O)c1sc(-c3ccco3)nc1C2=O [Example 59]', 'Emax', '18%'),
  ('O=C1c2ccccc2C(=O)c2oc(-c3ccccc3F)nc21 [Example 3]', 'Emax', '17%'),
  ('O=C1c2ccccc2C(=O)c2sc(-c3cccc(F)c3)nc21 [Example 13]', 'Emax', '21%'),
  ('O=C1c2ccccc2C(=O)c2sc(-c3ccoc3)nc21 [Example 18]', 'Emax', '39%'),
  ('Cc1nc2c(s1)C(=O)c1ccccc1C2=O [Example h]', 'Emax', '29%');

====

system: hyperpermeability induced by zymosan in rats; test: Inflammatory hyperpermeability induced by zymosan in rats; assay type: in vivo, rat (Wistar); conditions: rat, oral, 5 mg/kg, 2 h
recorded metric: Zymosan-induced hyperpermeability, effect after 2 h

INSERT INTO assay_data (cpd_smiles, target_entity, observed_measurement) VALUES
  ('O=C1c2ccccc2C(=O)c2sc(-n3cccc3)nc21', 'hyperpermeability induced by zymosan in rats', '-29 % of the control'),
  ('O=C1c2ccccc2C(=O)c2sc(-c3ccco3)nc21', 'hyperpermeability induced by zymosan in rats', '0 % of the control'),
  ('O=C1c2ccccc2C(=O)c2sc(-c3ccsc3)nc21', 'hyperpermeability induced by zymosan in rats', '-22 % of the control'),
  ('Cc1nc2c(n1C)C(=O)c1ccccc1C2=O.O=S(=O)(O)O', 'hyperpermeability induced by zymosan in rats', '-28 % of the control');
